B1: STX5 (parent)
chain: ESTIVELGSIFQQLAHMVKEQEET

- Variants of: B1
- method.description: protein stability index of a GFP-peptide fusion (GPS, HEK-293T) (PSI 1-6); higher = more stable;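 further: lentivirally expressed fusions sorted by FACS into six bins by GFP to DsRed ratio, PSI derived from sequencing read proportions per bin multiplied by bin number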
- test.parameters: c terminus: a fixed tail appended
Short version: protein stability index at least 3 is rule met, less is rule not met.

A15P rule met

Ask: Test whether the variant "H16V" records protein stability index of 3 or higher.
Reply: rule not met

Ask: Evaluate "S9R" : protein stability index at minimum 3?
Reply: rule not met

Ask: Record "S2A" ; criterion: protein stability index no lower than 3. Met?
Reply: rule not met

Ask: In plain terms: is recorded protein stability index at least 3 for "H16D" ?
Reply: rule not met

Ask: Hi, just wondering whether "S9E" shows protein stability index of 3 or higher.
Reply: rule not met

Ask: Does protein stability index meet or surpass 3 for "I10T" ?
Reply: rule met
